assayRemarks: inhibitors of mitochondrial cytochrome c release, biochemical, purified mitochondria (AID 1603);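 further: mouse liver mitochondria challenged with calcium chloride; signal normalized to the plate average as 100%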
assayContext: stronger effect = lower value
Lab note: compare cytochrome c release ratio with 0.9, writing satisfied if less and not satisfied if equal or more.

# compound, groupLabel
records = [
    ("Clc1ccc(COC(Cn2ccnc2)c2ccc(Cl)cc2Cl)c(Cl)c1 (stereo unspecified)", "satisfied"),
    ("CC(=O)Oc1ccc(Cl)c2cccnc12", "not satisfied"),
    ("O=C(O)c1ccccc1-c1c2cc(Br)c(=O)cc-2oc2[c]([Hg])c(O)c(Br)cc12", "not satisfied"),
    ("COc1ccc2c3c([nH]c2c1)C(C)=NCC3", "not satisfied"),
    ("C=C[C@H]1CN2CC[C@H]1C[C@@H]2[C@H](O)c1ccnc2ccccc12", "not satisfied"),
]

----------
assayRemarks: sensitizers of A549 cells to miR-34 induction, primary screen, imaging, A549 dox-inducible miR-34, nuclei and caspase counts (AID 1347080)
assayContext: A549 miR-34 inducible, Hoechst nuclei count, 48 h; cell number ratio, induced over uninduced
The source made the active and inactive calls.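 Rule for the calls: active = compounds whose cell count with miR-34 switched on is under 0.7 times the count with it off; inactive = the rest.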
Classes used: TRUE (active), FALSE (inactive)

# compound, groupLabel
records = [
    ("C(#CCN1CCCC1)CN1CCCC1", "FALSE"),
    ("Cc1sc2c(c1C)C(c1ccc(Cl)cc1)=NC(CC(=O)Nc1ccc(O)cc1)c1nnc(C)n1-2 (centres undefined)", "FALSE"),
    ("NC(N)=NOCC[C@H](N)C(=O)O", "FALSE"),
    ("CCCCC/C=C\\C/C=C\\C/C=C\\C/C=C\\CCCC(=O)NC1CC1", "FALSE"),
    ("O=C1C=CC[C@@H]2[C@@H]3CCCN4CCC[C@@H](CN12)[C@@H]34", "FALSE"),
    ("COC(=O)N1CCN(C(=O)Cc2ccc(Cl)c(Cl)c2)C(CN2CCCC2)C1 (centres undefined)", "FALSE"),
    ("C[C@H]1CC[C@]2(NC1)O[C@H]1C[C@H]3[C@@H]4CC[C@H]5C[C@@H](O)CC[C@]5(C)[C@H]4CC[C@]3(C)[C@H]1[C@@H]2C", "FALSE"),
    ("COc1ccc2c(c1OC)C(=O)O[C@@H]2[C@H]1c2cc3c(cc2CCN1C)OCO3", "FALSE"),
    ("N[C@]1(C(=O)O)CC[C@@H](C(=O)O)C1 (racemic)", "FALSE"),
    ("O=c1ccc2cc(OC3O[C@H](CO)[C@@H](O)[C@H](O)[C@H]3O)c(O)cc2o1 (some centres undefined)", "FALSE"),
    ("Cc1ncc(CN2CC=C(c3ccccc3)CC2)c(N)n1", "FALSE"),
    ("CCCCCC(/C=C/C=O)OO (centres undefined)", "FALSE"),
    ("CCOC(=O)c1ncn2c1CN(C)C(=O)c1cc(N=[N+]=[N-])ccc1-2", "FALSE"),
    ("CN(C)[C@@H]1C(=O)C(C(N)=O)=C(O)[C@@]2(O)C(=O)C3=C(O)c4c(O)ccc(Cl)c4[C@@](C)(O)C3C[C@@H]12 (some centres undefined)", "FALSE"),
    ("c1cncc([C@H]2CCCCN2)c1", "FALSE"),
    ("CN(C)[C@@H]1C(=O)C(C(N)=O)=C(O)[C@@]2(O)C(=O)C3=C(O)c4c(O)ccc(Cl)c4[C@@](C)(O)[C@H]3C[C@@H]12", "FALSE"),
    ("CCCCCCCCCCCCCCCC(=O)OC[C@H](COP(=O)([O-])OCC[N+](C)(C)C)OC(=O)CCCC=O", "FALSE"),
    ("C[C@H](Cc1ccc(OCC(=O)O)cc1)NC[C@H](O)c1cccc(Cl)c1", "FALSE"),
    ("c1cc2c(cc1C1OC[C@H]3C(c4ccc5c(c4)OCO5)OC[C@H]13)OCO2 (some centres undefined)", "FALSE"),
    ("CN=C(NS(=O)(=O)c1ccc(Cl)cc1)N1C[C@H](c2ccccc2)C(c2ccc(Cl)cc2)=N1", "FALSE"),
    ("CC1CC[C@@]2(OC1)O[C@H]1C[C@H]3[C@@H]4CC=C5CC(O[C@@H]6OC(CO)C(O[C@@H]7OC(C)C(O)C(O)C7O)C(O)C6O[C@@H]6OC(C)C(O)C(O)C6O)CC[C@]5(C)[C@@H]4CC[C@]3(C)[C@@H]1C2C (some centres undefined)", "TRUE"),
    ("O=C1OCCN1N=Cc1ccc([N+](=O)[O-])o1", "FALSE"),
    ("CCN1C[C@]2(COC)CC[C@H](O)[C@]34C1[C@](O)([C@@H](OC)[C@H]23)[C@@]1(O)C[C@H](OC)[C@H]2C[C@@H]4[C@@H]1[C@H]2OC", "FALSE"),
    ("CCCCC/C=C\\C/C=C\\C/C=C\\C/C=C\\CCCC(=O)N[C@@H](C)C(=O)O", "FALSE"),
    ("Cc1o[nH]c(=O)c1C[C@H](N)C(=O)O", "FALSE"),
    ("C=C[C@H]1CN2CC[C@H]1C[C@@H]2[C@@H](O)c1ccnc2ccccc12", "FALSE"),
    ("CO[C@H]1C=C2CCN(C)[C@H]2C2c3cc4c(cc3C(=O)O[C@@H]21)OCO4 (some centres undefined)", "FALSE"),
    ("c1cc2ccsc2c(N2CCNCC2)n1", "FALSE"),
    ("C[C@@H]1O[C@@H](O[C@@H]2C=C3CCC4C(CC[C@]5(C)[C@@H](c6ccc(=O)oc6)CC[C@]45O)[C@@]3(C)CC2)[C@H](O)[C@H](O)[C@H]1O (some centres undefined)", "FALSE"),
    ("CN1Cc2ccccc2[C@@H]2c3cccc4[nH]cc(c34)C[C@H]21", "FALSE"),
    ("CCNC(=O)CC1N=C(c2ccc(Cl)cc2)c2cc(OC)ccc2-n2c(C)nnc21 (centres undefined)", "FALSE"),
    ("C=C[C@H]1CN2CCC1C[C@H]2C(O)c1ccnc2ccccc12 (some centres undefined)", "FALSE"),
    ("CCCN1CCO[C@@H]2c3cc(O)ccc3OC[C@@H]21", "FALSE"),
    ("O=c1[nH]c2ccc(Cl)cc2c(NC2CN3CCC2CC3)c1-c1nc2ccccc2[nH]1 (centres undefined)", "FALSE"),
    ("Clc1ccc(CO/N=C(\\Cn2ccnc2)c2ccc(Cl)cc2Cl)c(Cl)c1", "FALSE"),
    ("N#Cc1ccc(N2CCN(C(=O)COc3ccc4[nH]cc(CCN)c4c3)CC2)cc1", "FALSE"),
    ("OC12C3C4CC5C6C4C1C6C(C53)N2CCc1cccc(F)c1 (centres undefined)", "FALSE"),
    ("COc1ccc(/C=C\\c2cc(OC)cc(OC)c2)cc1", "FALSE"),
    ("COc1cccc2ncn(Cc3cn4ccccc4n3)c(=O)c12", "FALSE"),
]

----------
assayRemarks: circadian clock period modulators, cell-based, LOPAC library, luminescence reporter (AID 2774);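 further: values are relative to mean of DMSO wells on each plate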
assayContext: circadian reporter cells, at 7 µM, actives lie on both sides
Calls of active or inactive are those of the source. The rule behind the calls is not given here.

# molecule, period change
data = [
    ("NCc1cc(=O)[nH]o1", "-0.1 h (inactive)"),
    ("NC(=O)c1cc(N2CC2)c([N+](=O)[O-])cc1[N+](=O)[O-]", "-0.165 h (inactive)"),
    ("CC(C)[C@@]1(NC(=O)[C@@H]2C=C3c4cccc5[nH]cc(c45)C[C@H]3N(C)C2)O[C@@]2(O)[C@@H]3CCCN3C(=O)[C@H](Cc3ccccc3)N2C1=O", "0.465 h (inactive)"),
    ("Oc1ccc2c3c1O[C@H]1[C@@H](O)CC[C@@]4(O)C(C2)N(CC2CCC2)CCC314 (some centres not stated)", "-0.2 h (inactive)"),
    ("CNCC(O)c1ccc(O)cc1 (configuration not stated)", "-0.045 h (inactive)"),
    ("CN1CCN(c2ccc3ccccc3n2)CC1", "-0.045 h (inactive)"),
    ("CCN(CC)c1ncnc2c1ncn2[C@@H]1O[C@H](COP(=O)(O)OP(=O)(O)C(Br)(Br)P(=O)(O)O)[C@@H](O)[C@H]1O", "0.205 h (inactive)"),
    ("COc1cc(C=C(C#N)C#N)cc(O)c1O", "-0.12 h (inactive)"),
    ("CCCN(CCC)CCc1c[nH]c2ccc(C(N)=O)cc12", "0.085 h (inactive)"),
    ("Clc1cnc(Oc2ccc(Oc3ncc(Cl)cc3Cl)cc2)c(Cl)c1", "0 h (inactive)"),
    ("CCCCC/C=C\\C/C=C\\C/C=C\\C/C=C\\CCCC(=O)NCC(=O)O", "0.15 h (inactive)"),
    ("c1ccc(CCCN2CCN(CCOC(c3ccccc3)c3ccccc3)CC2)cc1", "-0.025 h (inactive)"),
    ("CC(=O)NCCc1c[nH]c2ccccc12", "0.04 h (inactive)"),
    ("S=C=Nc1cccc(C2(N3CCCCC3)CCCCC2)c1", "0.05 h (inactive)"),
    ("Cc1nccc2c1[nH]c1ccccc12", "0.11 h (inactive)"),
    ("Cc1ncc(CNC(=O)N(CCCl)N=O)c(N)n1", "-0.065 h (inactive)"),
    ("CC12CCC3C(CCC4=C(O)C(=O)CCC43C)C1CCC2=O (configuration not stated)", "-0.08 h (inactive)"),
    ("C=CCN1CC[C@]23c4c5ccc(O)c4O[C@H]2/C(=N/NC(=O)c2ccccc2)CC[C@@]3(O)[C@H]1C5", "0.215 h (inactive)"),
    ("NCCc1ccc(O)cc1", "0.035 h (inactive)"),
    ("Cc1[nH]c2ccc(O)cc2c1CCN", "0.13 h (inactive)"),
    ("c1ccc(C2CC2)c(OCC2=NCCN2)c1", "-0.34 h (inactive)"),
    ("OC1CCCCC1N1CCC(c2ccccc2)CC1 (configuration not stated)", "0.065 h (inactive)"),
    ("COc1ccc2c(c1O)-c1cccc3c1[C@@H](C2)N(C)CC3", "-0.1 h (inactive)"),
    ("CN(N=O)c1cc(O)ccc1O", "0.05 h (inactive)"),
    ("CN1CCC(c2c[nH]c3ccc(O)cc23)CC1", "-0.16 h (inactive)"),
    ("CCN1C[C@]2(C)CC[C@H](O)[C@@]34C5C[C@@H]6[C@@H](OC)C[C@@](O)(C5[C@H]6O)[C@@H](CC23)C14 (some centres not stated)", "0.055 h (inactive)"),
    ("CN(N=O)c1ccc(O)c(O)c1", "-0.025 h (inactive)"),
    ("CC(C)NC(C)Cc1ccc(I)cc1 (configuration not stated)", "0.04 h (inactive)"),
    ("CCNC(=O)[C@H]1O[C@@H](n2cnc3c(N)ncnc32)C(O)[C@H]1O (some centres not stated)", "-0.025 h (inactive)"),
    ("CC(C)NP(=O)(NC(C)C)OP(=O)(NC(C)C)NC(C)C", "0.055 h (inactive)"),
    ("COc1ccc(CNC(=O)/C=C/c2ccc3[nH]cc(CCN(C)C)c3c2)cc1", "0.1 h (inactive)"),
    ("CC(=O)c1c(O)c(C)c(O)c(Cc2c(O)c3c(c(C(=O)/C=C/c4ccccc4)c2O)OC(C)(C)C=C3)c1O", "0.065 h (inactive)"),
    ("NC(Cc1cc(O)c(O)cc1O)C(=O)O (configuration not stated)", "0.12 h (inactive)"),
    ("CC(C)(C)c1cc(C=C(C#N)C#N)cc(C(C)(C)C)c1O", "1.05 h (inactive)"),
    ("C[C@H](N)CN1CCc2ccc(Br)cc21", "0.205 h (inactive)"),
    ("COc1ccc2c3c1O[C@H]1C(=O)CC[C@@]4(O)C(C2)N(CC2CC2)CCC314 (some centres not stated)", "-0.115 h (inactive)"),
    ("NC(Cn1oc(=O)[nH]c1=O)C(=O)O (configuration not stated)", "-0.055 h (inactive)"),
    ("CC[C@@H](CO)NC(=O)[C@@H]1C=C2c3cccc4[nH]cc(c34)C[C@H]2N(C)C1", "0.19 h (inactive)"),
    ("C[N+](C)(C)CC(=O)O", "-0.005 h (inactive)"),
    ("C=CCN1C[C@@H](C)N([C@H](c2ccc(C(=O)N(CC)CC)cc2)c2cccc(OC)c2)C[C@@H]1C", "0 h (inactive)"),
    ("CC(C)c1cccc(C(C)C)c1O", "0.005 h (inactive)"),
    ("CCC1(C2=NCCN2)Cc2ccccc2O1 (configuration not stated)", "0.07 h (inactive)"),
    ("CCN(CC)C(=O)N[C@@H]1C[C@@H]2c3cccc4[nH]cc(c34)C[C@H]2N(C)C1", "0.085 h (inactive)"),
    ("CC[C@@]1(O)C(=O)OCc2c1cc1n(c2=O)Cc2cc3ccccc3nc2-1", "-0.48 h (inactive)"),
    ("N[C@@]1(C(=O)O)CC[C@@H](C(=O)O)C1", "-0.105 h (inactive)"),
    ("COc1ccc(OC)c(C(O)C(C)N)c1 (configuration not stated)", "0.08 h (inactive)"),
    ("CC(N)Cc1c[nH]c2ccc(OCc3cccs3)cc12 (configuration not stated)", "-0.015 h (inactive)"),
]

These data points were gathered from PubChem BioAssay.
